A collection of compounds and their measured T/C
- System: CD2F1 mice, L1210 leukemia ip, survival T/C
- PROTOCOL DESCRIPTION: NCI In Vivo Anticancer Drug Screen. Data for tumor model L1210 Leukemia (intraperitoneal) in CD2F1 (CDF1) mice
- MEASUREMENT CONTEXT: endpoint: mean survival time; dose: 400.0 mg/kg/injection; schedule: Q04DX003 (ip); vehicle: saline; higher = longer survival
Toxic doses and inconclusive results are not listed.
RECORDED METRIC: T/C

[
  {
    "COMPOUND": "CCN(CC)CCCC(C)(NCc1ccccc1)[P+](=O)O (stereo not drawn)",
    "STUDY TARGET": "CD2F1 mice, L1210 leukemia ip, survival T/C",
    "REPORTED VALUE": "94 % of control"
  },
  {
    "COMPOUND": "CC(=O)c1c(C)cc2cccc(OC3OC(CO)C(O)C(O)C3O)c2c1O (stereo not drawn) (tested in a mixture with another compound)",
    "STUDY TARGET": "CD2F1 mice, L1210 leukemia ip, survival T/C",
    "REPORTED VALUE": "107 % of control"
  },
  {
    "COMPOUND": "Nc1cccc2c(S(=O)(=O)O)cccc12",
    "STUDY TARGET": "CD2F1 mice, L1210 leukemia ip, survival T/C",
    "REPORTED VALUE": "97 % of control"
  }
]

---

// reported T/C for each item listed
- System: CD2F1 mice, L1210 leukemia ip, survival T/C
- PROTOCOL DESCRIPTION: NCI In Vivo Anticancer Drug Screen. Data for tumor model L1210 Leukemia (intraperitoneal) in CD2F1 (CDF1) mice
- MEASUREMENT CONTEXT: endpoint: mean survival time; dose: 200.0 mg/kg/injection; schedule: Q01DX009 (ip); vehicle: Klucel (hydroxypropylcellulose) (HPC); higher = longer survival
Toxic doses and inconclusive results are not listed.
RECORDED METRIC: T/C

[
  {
    "MOLECULE": "COc1ccc(NC(=O)Oc2ccc(NC(C)=O)cc2)c(Cl)c1",
    "STUDY TARGET": "CD2F1 mice, L1210 leukemia ip, survival T/C",
    "REPORTED VALUE": "107 % of control"
  },
  {
    "MOLECULE": "CC1(C)OC(C(COC(c2ccccc2)(c2ccccc2)c2ccccc2)OC(=O)c2ccccc2)C(C(COC(c2ccccc2)(c2ccccc2)c2ccccc2)OC(=O)c2ccccc2)O1 (stereo unspecified)",
    "STUDY TARGET": "CD2F1 mice, L1210 leukemia ip, survival T/C",
    "REPORTED VALUE": "94 % of control"
  },
  {
    "MOLECULE": "CC(=O)Nc1ccc(S(=O)(=O)/N=S(\\C)c2ccc(C)cc2)cc1 (stereo unspecified)",
    "STUDY TARGET": "CD2F1 mice, L1210 leukemia ip, survival T/C",
    "REPORTED VALUE": "89 % of control"
  },
  {
    "MOLECULE": "Nc1cc(Cl)c([N+](=O)[O-])cc1O",
    "STUDY TARGET": "CD2F1 mice, L1210 leukemia ip, survival T/C",
    "REPORTED VALUE": "94 % of control"
  },
  {
    "MOLECULE": "O=C(O)c1ccccc1C(=O)NCc1ccccn1",
    "STUDY TARGET": "CD2F1 mice, L1210 leukemia ip, survival T/C",
    "REPORTED VALUE": "101 % of control"
  },
  {
    "MOLECULE": "COc1ccc2c(oc(=O)c3c(Cl)nc(C)c(C)c32)c1OC",
    "STUDY TARGET": "CD2F1 mice, L1210 leukemia ip, survival T/C",
    "REPORTED VALUE": "93 % of control"
  },
  {
    "MOLECULE": "Cc1cccc(N(C)C(=S)Oc2ccc3ccccc3c2)c1",
    "STUDY TARGET": "CD2F1 mice, L1210 leukemia ip, survival T/C",
    "REPORTED VALUE": "89 % of control"
  },
  {
    "MOLECULE": "C#CC(C)OCC1CNC(=S)O1 (stereo unspecified)",
    "STUDY TARGET": "CD2F1 mice, L1210 leukemia ip, survival T/C",
    "REPORTED VALUE": "97 % of control"
  },
  {
    "MOLECULE": "C1=NC(c2ccccn2)=NNC(c2ccccn2)=C1c1ccccc1",
    "STUDY TARGET": "CD2F1 mice, L1210 leukemia ip, survival T/C",
    "REPORTED VALUE": "97 % of control"
  },
  {
    "MOLECULE": "C[C@]12CC[C@@H]3c4ccc(O)cc4CC[C@H]3[C@@H]1CC[C@@H]2O",
    "STUDY TARGET": "CD2F1 mice, L1210 leukemia ip, survival T/C",
    "REPORTED VALUE": "96 % of control"
  },
  {
    "MOLECULE": "Cc1ccc(S(=O)(=O)OCC2OCOC(C(O)CO)C2O)cc1 (stereo unspecified)",
    "STUDY TARGET": "CD2F1 mice, L1210 leukemia ip, survival T/C",
    "REPORTED VALUE": "97 % of control"
  }
]

---

- System: CD2F1 mice, L1210 leukemia ip, survival T/C
- PROTOCOL DESCRIPTION: NCI In Vivo Anticancer Drug Screen. Data for tumor model L1210 Leukemia (intraperitoneal) in CD2F1 (CDF1) mice
- MEASUREMENT CONTEXT: endpoint: mean survival time; dose: 200.0 mg/kg/injection; schedule: Q04DX002 (ip); vehicle: saline with Tween-80; higher = longer survival
Inconclusive results and toxic doses are left out.

[
  {
    "MOLECULE": "CC/C=C/C(C)OC(=N)C(Cl)(Cl)Cl (stereo not drawn)",
    "T/C": "100 % of control"
  },
  {
    "MOLECULE": "O=C1NCC(C2CC2)(C2CC2)O1",
    "T/C": "100 % of control"
  },
  {
    "MOLECULE": "CC(C)(CCC#N)C(=O)c1ccccc1",
    "T/C": "102 % of control"
  },
  {
    "MOLECULE": "CC(Cl)S(=O)(=O)c1ccccc1 (stereo not drawn)",
    "T/C": "96 % of control"
  },
  {
    "MOLECULE": "N=S(=O)(c1ccccc1)c1ccccc1",
    "T/C": "93 % of control"
  },
  {
    "MOLECULE": "OC1(c2cccc(C(F)(F)F)c2)CCN(C2CC2c2ccccc2)CC1 (stereo not drawn)",
    "T/C": "95 % of control"
  },
  {
    "MOLECULE": "Cc1cc(=O)c2c(ccc3[nH]c(-c4ccco4)nc32)[nH]1",
    "T/C": "102 % of control"
  },
  {
    "MOLECULE": "Nc1nc2c([nH]c(=S)n2C2OC(CO)C(O)C2O)c(=O)[nH]1 (stereo not drawn)",
    "T/C": "97 % of control"
  },
  {
    "MOLECULE": "O=C(/C=C/c1ccccc1)Nc1ccc(Cl)c(Cl)c1",
    "T/C": "91 % of control"
  },
  {
    "MOLECULE": "COc1ccc(NC(=O)Nc2cccc([N+](=O)[O-])c2OC)cc1",
    "T/C": "86 % of control"
  },
  {
    "MOLECULE": "CC(=O)N/N=C/C(C)(C)C(C)(C)/C=N/NC(C)=O",
    "T/C": "122 % of control"
  },
  {
    "MOLECULE": "O=C(O)CCCCCCCC(Br)C(Br)CCCCCCCC(=O)O (stereo not drawn)",
    "T/C": "95 % of control"
  },
  {
    "MOLECULE": "CCOc1nc(-c2ccccc2)nc(N)c1Cl",
    "T/C": "98 % of control"
  }
]

---

- System: CD2F1 mice, L1210 leukemia ip, survival T/C
- PROTOCOL DESCRIPTION: NCI In Vivo Anticancer Drug Screen. Data for tumor model L1210 Leukemia (intraperitoneal) in CD2F1 (CDF1) mice
- MEASUREMENT CONTEXT: endpoint: mean survival time; dose: 50.0 mg/kg/injection; schedule: Q01DX009 (ip); vehicle: water; higher = longer survival
- Procedure: The antitumor activity of compounds was measured in mice bearing transplantable tumors. Survival or tumor size were measured and the results are expressed as the measurement made in the treated group (T) divided by the measurement made in the vehicle treated control group (C). The tumor model used in this assay is L1210 Leukemia (intraperitoneal) in CD2F1 (CDF1) mice
Toxic doses and inconclusive results are not listed. Residues, ends and D or L forms follow the SMILES beside them.
Documented T/C across a set of molecules

[
  {
    "MOLECULE": "OCC(O)COCC#Cc1ccccc1 (centres undefined)",
    "T/C": "92 % of control"
  },
  {
    "MOLECULE": "O=P(Oc1ccccc1)(Oc1ccccc1)N(CCCl)CCCl",
    "T/C": "104 % of control"
  },
  {
    "MOLECULE": "CC(CC(C(=O)O)C(=O)O)C(=O)O (centres undefined)",
    "T/C": "93 % of control"
  },
  {
    "MOLECULE": "COc1ccc(-c2nc(C)cc3cc(OC)c(OC)cc23)cc1OC",
    "T/C": "91 % of control"
  },
  {
    "MOLECULE": "Cc1ccc(S(=O)(=O)NN=C(c2ccccc2)c2ccccc2)cc1",
    "T/C": "101 % of control"
  },
  {
    "MOLECULE": "CC(C)C(NC(=O)C(CCCN=C(N)N)NC(=O)C(N)CCCCN)C(N)=O (stereo not drawn) (H-Lys-Arg-Val-NH2; configuration not given here)",
    "T/C": "94 % of control"
  },
  {
    "MOLECULE": "O=[N+]([O-])c1c(Cl)cc(Cl)c(-c2c(Cl)cc(Cl)c([N+](=O)[O-])c2Cl)c1Cl",
    "T/C": "94 % of control"
  },
  {
    "MOLECULE": "O=C(O)C(=O)O.O=C(O)C(=O)O.OO.OO.[Nb]",
    "T/C": "87 % of control"
  },
  {
    "MOLECULE": "N=C(N)c1ccc(/C=C/c2ccc(C(=N)N)cc2O)cc1",
    "T/C": "111 % of control"
  }
]
